- assay-overview: Solubility (wt %) of the dye in liquid crystal material
- Format: physicochemical
- condition-description: liquid crystal material E 43, 20° C.
Measured Solubility, listed per entry for reference.

| molecule | value-operator | Solubility / wt % |
| --- | --- | --- |
| CCCCCCCCc1cc(N)c2c(c1O)C(=O)c1c(O)c(CCCCCCCC)cc(N)c1C2=O [Example 4, 2,7-di-n-octyl-4,5-diaminochrysazin] | = | 13.0 |
| CCCCCCCc1cc(N)c2c(c1O)C(=O)c1c(O)c(CCCCCCC)cc(N)c1C2=O [Example 2c, 2,7-Di-n-heptyl-4,5-diaminochrysazin] | = | 5.5 |
| CCCCCc1cc(N)c2c(c1O)C(=O)c1c(O)c(CCCCC)cc(NC)c1C2=O [Example 6b] | = | 3.3 |
| CCCCCCCc1cc(N)c2c(c1O)C(=O)c1c(N)cc(CCCCCCC)c(O)c1C2=O [n-hexyl, Comparative Dyes (Formula B), reference compound] | < | 0.01 |
| CCCCCc1cc(NC)c2c(c1O)C(=O)c1c(O)c(CCCCC)cc(NC)c1C2=O [Example 6c] | = | 0.9 |
| CCCCCCc1cc(N)c2c(c1O)C(=O)c1c(O)c(CCCCCC)cc(N)c1C2=O [Example 3, 2,7-Di-n-hexyl-4,5-diaminochrysazin] | = | 4.3 |
